testSummary: Toxicity liver stage against HepG2, at 10uM
Type: cell-based
Set-up: test concentration 10 uM, cell line HepG2-A16-CD81EGFP
cond: human, HepG2-A16-CD81EGFP cells; read-out: INHIBITION
Below: a set of entries, each annotated with reported cytotoxicity at 10 µM.
Expressed in %, but write only the number.

Below are worked cases with known answers.
compound: COc1ccc(CN(C)[C@@H]2CN(C(=O)c3cncs3)C[C@H]2O)cc1
quantityUnit: %
valueReported: -12.4
//
compound: Cn1cccc1C(=O)N1CCCC2(CCCN2S(C)(=O)=O)C1 (stereo unspecified)
quantityUnit: %
valueReported: 6.28
//
compound: CCCn1nccc1NC(=O)c1ccc(Cl)c(N2CCNC2=O)c1
quantityUnit: %
valueReported: -5.07
//
compound: CC(C)(C)c1coc([C@@H]2COCCN2Cc2c[nH]c3ccccc23)n1
quantityUnit: %
valueReported: -1.23
//
compound: O=C(CN1CCCCCC1)NCCSc1cnn[nH]1
quantityUnit: %
valueReported: -7.15

Form field cytotoxicity at 10 µM, entry `CNc1oc(-c2cc(S(=O)(=O)N3CCCCCC3)c(C)o2)nc1C#N` : -5.28

====

Below: a set of entries, each annotated with reported cytotoxicity at 10 µM.
testSummary: Toxicity liver stage against HepG2, at 10uM
Assay type: cell-based
Design: test concentration 10 uM, cell line HepG2-A16-CD81EGFP
cond: human, HepG2-A16-CD81EGFP cells; read-out: INHIBITION
Expressed in %, but write only the number.

compound: Cc1ncn(CCNC(=O)Nc2ccccc2)c(=O)c1C
cytotoxicity at 10 µM [%]: -4.39
--
compound: CNC(=O)[C@@H]1CN(C(=O)C(C)C)C[C@H]1c1ccnc(N2CCCC2)n1
cytotoxicity at 10 µM [%]: 0.791
--
compound: CCOc1cc(N2CCN(C(=O)c3ccc(OC)cc3)CC2)nc(C)n1
cytotoxicity at 10 µM [%]: -10.2

Form field cytotoxicity at 10 µM, entry `CN1CCN(C(=O)c2cc3sccc3n2Cc2ccc(Cl)cc2)CC1` : 1.05

Form field cytotoxicity at 10 µM, entry COc1cccc(CN2CCC(c3nnc(-c4cnc(C)cn4)o3)C2)c1 (configuration not stated) : -10.4

Form field cytotoxicity at 10 µM, entry `Cc1cc(NS(=O)(=O)c2c[nH]c3ncccc23)no1` : -1.69

Form field cytotoxicity at 10 µM, entry `Cc1c(C(=O)O)nnn1Cc1cccc(C(F)(F)F)c1` : -2.93

Form field cytotoxicity at 10 µM, entry c1ccc(CN2Cc3nccn3CC(Cn3cncn3)C2)nc1 (configuration not stated) : -141

====

testSummary: Toxicity liver stage against HepG2, at 10uM
Type: cell-based
Design: test concentration 10 uM, cell line HepG2-A16-CD81EGFP
cond: human, HepG2-A16-CD81EGFP cells; read-out: INHIBITION
measurementLabel: cytotoxicity at 10 µM (%)
Expressed in %, but write only the number.

Below are worked cases with known answers.
molecule: Cc1cc(C2CCCN(CC(=O)Nc3nc4c(s3)CCC4)C2)n[nH]1 (configuration not stated)
quantityUnit: %
cytotoxicity at 10 µM: -44.2

molecule: CCn1nccc1CNC(=O)C1CCCC1
quantityUnit: %
cytotoxicity at 10 µM: -18.5

molecule: Cc1ccc(C(C(=O)NCCN2CCCCCC2)N(C)C)cc1 (configuration not stated)
quantityUnit: %
cytotoxicity at 10 µM: -3.12

molecule: N#CCCCS(=O)(=O)NC1(c2cccc(Br)c2)CC1
quantityUnit: %
cytotoxicity at 10 µM: 2.99

molecule: COCCC(=O)NCC1COc2cc(OC)ccc2C1 (configuration not stated)
quantityUnit: %
cytotoxicity at 10 µM: 0.0723

molecule: CCC(C)c1noc(C2CCN(C(=O)c3cccnc3)CC2)n1 (configuration not stated)
quantityUnit: %
cytotoxicity at 10 µM: -10.7

Turning to the following molecule.
Form field cytotoxicity at 10 µM, entry Nc1ccc(CC2CCCN(Cc3c[nH]cn3)C2)nn1 (configuration not stated) : -0.701

====

testSummary: Toxicity liver stage against HepG2, at 10uM
Format: cell-based
Design: test concentration 10 uM, cell line HepG2-A16-CD81EGFP
cond: human, HepG2-A16-CD81EGFP cells; read-out: INHIBITION
Below: a set of entries, each annotated with reported cytotoxicity at 10 µM.
Expressed in %, but write only the number.

Below are worked cases with known answers.
compound: COCCC1COC2(CCN(C(=O)c3ccncc3)CC2)C1 (stereo unspecified)
quantityUnit: %
valueReported: -74.9

compound: Cc1ccc([C@]2(O)CC[C@H]3CN(Cc4ccccc4F)C[C@H]32)nc1
quantityUnit: %
valueReported: -12.8

compound: CCCc1cc(C(=O)N2C[C@@H](C)[C@](O)(C3CCC3)C2)[nH]n1
quantityUnit: %
valueReported: 10.1

compound: CN(C)c1nc(CNC(=O)NC2CCc3ccccc32)cs1 (stereo unspecified)
quantityUnit: %
valueReported: -3.41

compound: CN(C)C(=O)COCc1nnc2n1CCN(Cc1ccoc1)C2
quantityUnit: %
valueReported: 8.49

compound: CN1CCN(C(=O)[C@H]2CC[C@@H]3[C@@H](CCN3Cc3nccs3)O2)CC1
quantityUnit: %
valueReported: 5.41

compound: O=S(=O)(CCO)CCc1ccccc1Cl
quantityUnit: %
valueReported: 7.21

compound: CC(NC(N)=O)C(=O)NCc1cc(Br)ccc1F (stereo unspecified)
quantityUnit: %
valueReported: -3.02

Form field cytotoxicity at 10 µM, entry `CN(C)CC(=O)N1CCC2(CC1)CN(Cc1cccnc1)C(=O)CO2` : -8.99

Form field cytotoxicity at 10 µM, entry `CCNC(=O)N1C[C@@H]2OCC(=O)N(C(C)C)[C@@H]2C1` : -0.155

Form field cytotoxicity at 10 µM, entry `O=C(c1ccc(Cn2cnnn2)cc1)N1CC[C@H](CO)[C@H](O)C1` : 0.529

====

testSummary: Toxicity liver stage against HepG2, at 10uM
Format: cell-based
Parameters: test concentration 10 uM, cell line HepG2-A16-CD81EGFP
cond: human, HepG2-A16-CD81EGFP cells; read-out: INHIBITION
measurementLabel: cytotoxicity at 10 µM (%)
Expressed in %, but write only the number.

molecule: CO[C@H]1CCN(S(=O)(=O)c2cn(C)cn2)[C@H]1Cc1ccccc1
valueReported: 6.19
//
molecule: O=C(CC(F)(F)F)NCC(O)c1ccc2ccccc2c1 (stereo not drawn)
valueReported: -4.06
//
molecule: CCCS(=O)(=O)N1C[C@@H]2CN(Cc3cccs3)CCO[C@@H]2C1
valueReported: -145
//
molecule: CC(C)NC(=O)CN(C)C1CCN(c2ccc(C#N)cn2)CC1
valueReported: -16.1
//
molecule: Cc1ccnc(NC(=O)CCNC(=O)c2ccccc2Cl)c1
valueReported: -2.66
//
molecule: O=C(c1ccc(Cn2cc(Br)cn2)cc1)N1CCCC1
valueReported: -7.86
//
molecule: Cc1noc(C)c1-c1cncc(C2CCCN2Cc2cn(C)cn2)n1 (stereo not drawn)
valueReported: -20.4
//
molecule: COc1ccc(CC(=O)N2CCCC2Cn2cc(C)cn2)cc1OC (stereo not drawn)
valueReported: -17.9

Form field cytotoxicity at 10 µM, entry `COc1ccc(C2=CCN(C(=O)CN(C)S(C)(=O)=O)CC2)cc1` : -3.99

Form field cytotoxicity at 10 µM, entry O=S1(=O)NC2(CCCN(CCc3ccccc3)C2)COc2ccccc21 (stereo not drawn) : 7.47

Form field cytotoxicity at 10 µM, entry Cc1ncsc1C(=O)N1CCC(c2ncncc2-c2ccnc(N)c2)C1 (stereo not drawn) : -0.197

====

testSummary: Toxicity liver stage against HepG2, at 10uM
Format: cell-based
Design: test concentration 10 uM, cell line HepG2-A16-CD81EGFP
cond: human, HepG2-A16-CD81EGFP cells; read-out: INHIBITION
measurementLabel: cytotoxicity at 10 µM

Below are worked cases with known answers.
compound: Cc1cc(C(=O)NS(=O)(=O)Cc2ccon2)c(C)n1C(C)C
valueReported: -2.17%
//
compound: COc1ccc(CNC(C)c2cnc3cc(C)nn3c2C)cc1 (stereo unspecified)
valueReported: -4.86%
//
compound: COCCN1CC(C(=O)NCc2ccc(C)s2)CC1=O (stereo unspecified)
valueReported: 5.27%
//
compound: CN1CCN(C2CCN(Cc3cn4ccccc4n3)CC2)C1=O
valueReported: 19.1%
//
compound: Cc1nc(N)sc1C(=O)N1Cc2ccccc2OC2(CCOCC2)C1
valueReported: -24.6%

Turning to the following compound.
Form field cytotoxicity at 10 µM, entry CS(=O)(=O)N1CCC2(CC1)CC(Oc1ccccn1)CO2 (stereo unspecified) : -150%

====

testSummary: Toxicity liver stage against HepG2, at 10uM
Type: cell-based
Parameters: test concentration 10 uM, cell line HepG2-A16-CD81EGFP
cond: human, HepG2-A16-CD81EGFP cells; read-out: INHIBITION
measurementLabel: cytotoxicity at 10 µM (%)
Expressed in %, but write only the number.

Below are worked cases with known answers.
molecule: Cc1cnn(CC2CCCN2C(=O)c2nccc3ccccc23)c1 (stereo not drawn)
cytotoxicity at 10 µM (%): -2.14
//
molecule: c1cn(CC2CCOCC2)c(-c2cc(CN3CCCC3)cs2)n1
cytotoxicity at 10 µM (%): -2.96
//
molecule: OCC1CCC2(CC1)CN(Cc1ccccn1)Cc1ccccc1O2 (stereo not drawn)
cytotoxicity at 10 µM (%): 5.35

Form field cytotoxicity at 10 µM, entry `CC(C)n1cnnc1CN(C)Cc1cnc(-c2ccccn2)nc1` : 11.9

Form field cytotoxicity at 10 µM, entry `Cc1cccc(-n2nc(CC(C)C)nc2[C@H](C)O)c1` : 5.54

Form field cytotoxicity at 10 µM, entry `CC(C)(C)NC(=O)CN1CCNCC1` : -143

Form field cytotoxicity at 10 µM, entry `Cc1ccc(SC2CCCC2)c(C(=O)NCCc2n[nH]c(=O)[nH]2)c1` : -45.3

Form field cytotoxicity at 10 µM, entry CCNC(=O)NC(=O)C(C)N1CCCc2cc(OC)ccc2C1 (stereo not drawn) : 9.86

Form field cytotoxicity at 10 µM, entry `Cc1noc(C)c1CC(=O)Nc1ccn(CC(N)=O)n1` : 9.86

Form field cytotoxicity at 10 µM, entry Cn1cc(CN2CCCC(CCc3ccc(F)c(F)c3)C2)cn1 (stereo not drawn) : -6.6

Form field cytotoxicity at 10 µM, entry `COc1ccc(C)cc1CN(C)CCCNS(C)(=O)=O` : -43.2

Form field cytotoxicity at 10 µM, entry `O=C(c1ccc(F)cc1)N1C[C@H]2CCC[C@@]2(COCc2ccncc2)C1` : 8.04

Form field cytotoxicity at 10 µM, entry `CC(C)N1[C@@H](C(=O)NCCN(C)C)C[C@H]2CN(c3ncccn3)C[C@H]21` : 8.73

The values you see were collected from ChEMBL document CHEMBL4513216.
